Catalogue of composite z-score values
# Tested on: Neuregulin-1 EGF-like domain
# method.summary: binders of neuregulin-1 EGF-like domain, primary screen, biochemical, small-molecule microarray, 635 nm fluorescence (AID 1081);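 note: binding of the protein to compounds printed on small-molecule microarray slides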
# measurement.parameters: small-molecule microarray binding, higher = more signal
observed.property: composite z-score

compound | target.entity | observed.property | value.observed
CCOC(=O)C[C@H]1[C@H](OC(=O)c2ccc(C(=O)c3ccccc3)cc2)[C@@H](NC(=O)Cc2ccc(OC)cc2)c2cc(OCCCO)ccc2N1C(=O)c1ccccc1 | Neuregulin-1 EGF-like domain | composite z-score | 0.676
COCCOC(=O)N1C(=O)[C@@]2(c3cc(C#Cc4ccc(OC)cc4)ccc31)[C@H](c1ccccc1OCCO)N1[C@H](c3ccccc3)[C@H](c3ccccc3)OC(=O)[C@H]1[C@@H]2C(=O)N1CCCCCCC1 | Neuregulin-1 EGF-like domain | composite z-score | 0.961
CCOC(=O)C[C@H]1[C@H](OC(=O)c2ccccc2-c2ccccc2)[C@@H](NC(=O)c2ccc(-c3ccccc3)cc2)c2cc(OCCCO)ccc2N1C(=O)c1ccc2ccccc2n1 | Neuregulin-1 EGF-like domain | composite z-score | 0.849
C=CCNC(=O)[C@@H]1[C@H]2C(=O)O[C@H](c3ccccc3)[C@H](c3ccccc3)N2[C@H](c2ccc(O)cc2)[C@@]12C(=O)N(C(=O)OCCOC)c1ccc(C#CC3(O)CCCCCC3)cc12 | Neuregulin-1 EGF-like domain | composite z-score | -0.895
C=C(/C(=C/C[C@@H](OC(C)=O)c1cccc(OCCO)c1)c1cc(C(=O)OC)ccc1OC)C(C)C | Neuregulin-1 EGF-like domain | composite z-score | 0.938
O=C1O[C@H](c2ccccc2)[C@H](c2ccccc2)N2[C@H]1[C@@H](C(=O)Nc1nc3ccccc3s1)[C@]1(C(=O)Nc3ccccc31)[C@H]2c1ccc(OCCO)cc1 | Neuregulin-1 EGF-like domain | composite z-score | 1.11
O=C1OCCC/C=C\[C@H]2OC34C=CCN(CCN5CCOCC5)C(=O)[C@H]3N(CCCCCCO)C(=O)[C@@H]4C12 (stereo partly specified) | Neuregulin-1 EGF-like domain | composite z-score | 1.17
[N-]=[N+]=NCc1ccccc1C[C@@]1(C(=O)NCc2ccccc2)N=C(c2ccc(OCCCO)cc2)O[C@@H]1c1ccccc1N=[N+]=[N-] | Neuregulin-1 EGF-like domain | composite z-score | 1.1
C=CCOC(=O)[C@H]1[C@@H]2C(=O)O[C@@H](c3ccccc3)[C@@H](c3ccccc3)N2[C@@H](c2ccc(OCCOC(=O)[C@H]3C[C@H]4C(=O)N[C@@H](CC(C)C)C(=O)N4[C@H]3c3cccc(OCCO)c3)cc2)[C@]12C(=O)Nc1ccc(I)cc12 | Neuregulin-1 EGF-like domain | composite z-score | 1.17
COc1ccc(C(O)C2C=CC3C(=O)N(c4ccccc4)C(=O)C3N2Nc2ccc([N+](=O)[O-])cc2)cc1 (stereo unspecified) | Neuregulin-1 EGF-like domain | composite z-score | 1.16
COC(=O)c1nc2oc1CC[C@@H](CO)NC(=O)N(C)Cc1cnnn1C[C@H](Cc1ccccc1)NC2=O | Neuregulin-1 EGF-like domain | composite z-score | 0.434
CCOC(=O)C[C@H]1[C@H](OC(=O)c2ccccc2-c2ccccc2)[C@@H](NC(=O)C2CCCCC2)c2cc(OCCCO)ccc2N1C(=O)Cc1ccc(OC)cc1 | Neuregulin-1 EGF-like domain | composite z-score | -0.163
[N-]=[N+]=Nc1ccccc1[C@H]1OC(c2ccc(OCCCO)cc2)=N[C@@]1(Cc1ccccc1)C(=O)N1CCCCC1 | Neuregulin-1 EGF-like domain | composite z-score | 1.32
CC(C)N1CC=CC23O[C@@H]4C=CCOC(=O)[C@@H]4[C@H]2C(=O)N(CCCO)[C@@H]3C1=O (stereo partly specified) | Neuregulin-1 EGF-like domain | composite z-score | 1.58
CC(C)OC(=O)C=C1C[C@@H](c2ccc(C(F)(F)F)cc2)O[C@@H](c2ccc(C(F)(F)F)cc2)O1 | Neuregulin-1 EGF-like domain | composite z-score | 1
O=C1OCC=C[C@H]2OC34C=CCN(Cc5ccccc5)C(=O)[C@H]3N(CCCCCCO)C(=O)[C@@H]4[C@@H]12 (stereo partly specified) | Neuregulin-1 EGF-like domain | composite z-score | 1.12
O=C1O[C@H](c2ccccc2)[C@H](c2ccccc2)N2[C@H]1[C@@H](C(=O)Nc1nc3ccccc3s1)[C@]1(C(=O)Nc3ccc(C#CCCO)cc31)[C@H]2c1ccc(O)cc1 | Neuregulin-1 EGF-like domain | composite z-score | 1.27
C=CCN1C(=O)[C@@]2(O[C@@H](CCn3cc([C@H](O)c4ccccc4)nn3)[C@H]([Si](C)(C)c3ccc(OC)cc3)[C@H]2C)c2cc(N3CCC3=O)ccc21 | Neuregulin-1 EGF-like domain | composite z-score | 1.25
[N-]=[N+]=Nc1ccccc1[C@H]1OC(c2ccc(OCCCO)cc2)=N[C@@]1(CCS(=O)(=O)c1ccccc1)C(=O)NCCN1CCOCC1 | Neuregulin-1 EGF-like domain | composite z-score | 1.12
Cc1cc(C)c(C(O)C2C=CC3C(=O)N(c4ccccc4)C(=O)C3N2Nc2ccc(C(C)C)cc2)c(C)c1 (stereo unspecified) | Neuregulin-1 EGF-like domain | composite z-score | 1.25
COCCOC(=O)N1C(=O)[C@@]2(c3cc(C#CC4=CCCCC4)ccc31)[C@H](c1ccccc1OCCO)N1[C@H](c3ccccc3)[C@H](c3ccccc3)OC(=O)[C@H]1[C@@H]2C(=O)Nc1nc2ccccc2s1 | Neuregulin-1 EGF-like domain | composite z-score | 1.08
O=C1O[C@@H](c2ccccc2)[C@@H](c2ccccc2)N2[C@@H](c3ccccc3OCCO)[C@]3(C(=O)Nc4ccc(C#CCCO)cc43)[C@@H](C(=O)N3CCCCCCC3)[C@H]12 | Neuregulin-1 EGF-like domain | composite z-score | 1.35
C=CC1c2cc(O)c(OC)cc2CCN1Cc1cc2c(cc1Br)OCO2 (stereo unspecified) | Neuregulin-1 EGF-like domain | composite z-score | 1.22
CCOC(=O)C1=C[C@@H](c2ccccc2)N(S(=O)(=O)c2ccc(C)cc2)[C@H]1c1ccccc1Cl | Neuregulin-1 EGF-like domain | composite z-score | 0.857
COC(=O)C1=CC(CCCO)=CC(C2CC2)N(C)C=C1C(=O)OC (stereo unspecified) | Neuregulin-1 EGF-like domain | composite z-score | 0.935
Cc1ccc(S[C@]2(C(=O)O)CC(=O)N(Cc3ccccc3Cl)[C@@H]2c2ccc(CO)cc2I)cc1 | Neuregulin-1 EGF-like domain | composite z-score | 1.09
